- target: T1, DNA polymerase IV (Dpo4) (Sulfolobus solfataricus, UniProt Q97W02 1-352)
- T1 sequence: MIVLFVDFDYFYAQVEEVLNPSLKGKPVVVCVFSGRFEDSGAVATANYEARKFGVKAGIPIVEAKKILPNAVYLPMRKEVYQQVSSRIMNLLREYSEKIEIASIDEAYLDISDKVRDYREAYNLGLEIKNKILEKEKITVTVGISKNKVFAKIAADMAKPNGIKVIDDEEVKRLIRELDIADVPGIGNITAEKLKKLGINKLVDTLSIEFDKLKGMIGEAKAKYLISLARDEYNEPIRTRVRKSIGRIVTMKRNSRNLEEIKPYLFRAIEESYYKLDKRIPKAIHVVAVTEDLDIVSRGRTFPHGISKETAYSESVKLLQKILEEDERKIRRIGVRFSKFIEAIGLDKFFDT
- assay_remarks: EMSA
assay_endpoint: Kd

Query 21/26-mer-dG1,8 (dsDNA, template G6 (from 5') is dG1,8 = 8-(deoxyguanosin-N2-yl)-1-aminopyrene; lesion paired with primer 3' end) DNA 1: AACGACGGCCAGTGAATTCGC DNA 2: CCCGCGCGAATTCACTGGCCGTCGTT yields Kd of 27 nM
